Biological target: UniProt:P10721
Sequence (P10721 26-976): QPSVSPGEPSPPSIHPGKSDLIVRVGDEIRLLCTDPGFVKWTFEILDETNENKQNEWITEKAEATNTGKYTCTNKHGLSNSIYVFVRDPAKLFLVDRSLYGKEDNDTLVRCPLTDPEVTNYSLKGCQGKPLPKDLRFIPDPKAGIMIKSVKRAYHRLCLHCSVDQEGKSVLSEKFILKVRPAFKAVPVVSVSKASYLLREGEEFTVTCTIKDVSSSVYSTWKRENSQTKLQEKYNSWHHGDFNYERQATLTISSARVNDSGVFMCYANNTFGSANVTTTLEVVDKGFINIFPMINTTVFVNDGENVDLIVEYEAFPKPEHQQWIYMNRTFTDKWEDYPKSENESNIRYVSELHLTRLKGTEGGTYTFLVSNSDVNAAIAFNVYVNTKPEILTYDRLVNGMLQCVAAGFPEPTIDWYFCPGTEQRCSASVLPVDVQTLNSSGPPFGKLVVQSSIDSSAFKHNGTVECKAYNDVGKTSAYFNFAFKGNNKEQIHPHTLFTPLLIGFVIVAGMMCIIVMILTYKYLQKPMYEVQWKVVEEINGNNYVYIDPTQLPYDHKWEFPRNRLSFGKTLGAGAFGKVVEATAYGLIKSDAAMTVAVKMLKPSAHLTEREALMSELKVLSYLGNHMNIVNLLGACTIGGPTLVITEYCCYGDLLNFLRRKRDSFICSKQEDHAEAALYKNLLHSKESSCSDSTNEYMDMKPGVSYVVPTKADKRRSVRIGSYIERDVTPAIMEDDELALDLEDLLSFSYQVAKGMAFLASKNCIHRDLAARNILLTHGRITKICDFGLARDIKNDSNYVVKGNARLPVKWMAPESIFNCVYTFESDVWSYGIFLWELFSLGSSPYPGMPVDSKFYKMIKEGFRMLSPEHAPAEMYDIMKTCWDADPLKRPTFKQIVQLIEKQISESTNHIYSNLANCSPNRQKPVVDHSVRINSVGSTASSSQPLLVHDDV
Assay: c-Kit biochemical assay (per US 2007/0032519)
Each record here notes measured IC50.

| SUBSTANCE_SMILES | TESTED_SYSTEM | IC50 |
| --- | --- | --- |
| COc1cnc2[nH]cc(-c3ccc4scnc4c3)c2c1 | UniProt:P10721 | 10 to 200 µM |
| CC(C)(C)n1cnc2ccc(-c3c[nH]c4ncc(-c5cncc(F)c5)nc34)cc21 | UniProt:P10721 | 1 to 10 µM |
| COc1cnc2[nH]cc(-c3ccc4ncn(C5CCCCC5)c4c3)c2c1 | UniProt:P10721 | 1 to 10 µM |
| COc1cnc2[nH]cc(-c3ccc4ncn(CC5CC5)c4c3)c2c1 | UniProt:P10721 | 10 to 200 µM |
| CC(C)(C)n1cnc2ccc(-c3c[nH]c4ncc(C5=CCN(C(=O)C6CC6)C5)nc34)cc21 | UniProt:P10721 | 1 to 10 µM |
| CC(C)(C)n1cnc2ccc(-c3c[nH]c4ncc(-c5cnc(O)nc5)nc34)cc21 | UniProt:P10721 | 1 to 10 µM |
| Cn1cnc2ccc(-c3c[nH]c4ncc(-c5cccc(NS(C)(=O)=O)c5)cc34)cc21 | UniProt:P10721 | 10 to 200 µM |
| CC(C)(O)c1ncc(-c2cnc3[nH]cc(-c4ccc5ncn(C(C)(C)C)c5c4)c3n2)cn1 | UniProt:P10721 | 1 to 10 µM |
